Values from PubChem BioAssay (NCI)

Attribute: TGI
# System: HS 578T breast
# testSummary: NCI tumour cell line growth inhibition, 48 h

Example compounds with recorded TGI:
- Cc1cc2c(cc1Cl)SC1=NN(C)C(C)N1S2(=O)=O (stereo not given): > 100 µM
- COC(=O)C1(Cc2ccc3c(c2)CCC3)Cc2ccccc2C1O (stereo not given): 48.1 µM
- Cc1ccc(S(=O)(=O)c2c(COC(=O)c3cccc(C)c3)c(-c3ccccc3)nn2C)cc1: > 100 µM
- N#CC1(C#N)NC(c2cccs2)C(C#N)(C#N)NC1c1cccs1 (stereo not given): > 100 µM

**Q:** Please report the recorded TGI for `CCCCC(=O)c1c(O)nc2sccn2c1=O` .
**A:** > 10 µM

* * *

Attribute: TGI
# Test system: MOLT-4 leukemia
# testSummary: NCI tumour cell line growth inhibition, 48 h

Example compounds with recorded TGI:
- CCCCCCC[CH2][Sn]([CH2]CCCCCCC)([O]c1cccc2cccnc12)[O]c1cccc2cccnc12: 3.81 µM
- Cc1c(Cl)cccc1C(=O)Nc1nc2c(s1)CN(C(=O)c1ccc(C(F)(F)F)cc1)CC2: > 50 µM
- O=C(NCCCCCCCCCCCCNC(=O)Nc1cccc2ccccc12)Nc1cccc2ccccc12: 42.2 µM
- N/N=C(/C(=O)Nc1cccc(Cl)c1)C(C(=O)c1ccc(O)cc1O)C1OC(=O)c2ccccc21 (stereo not given): > 100 µM
- CO/N=C1\CC(NC(=O)CNC(=O)OC(C)(C)C)c2ccsc21 (stereo not given): > 100 µM
- COc1cccc(N2C(=O)C3c4[nH]c5ccccc5c4C4CCCC4C3C2=O)c1 (stereo not given): > 10 µM

**Q:** Please report the recorded TGI for `CC1(C)N/C(=C\C=O)C(C)(C)N1O` .
**A:** > 100 µM

**Q:** Please report the recorded TGI for `CCN(CC)N1C(=O)[N+](CC)(CC)N=C1[O-]` .
**A:** > 100 µM

**Q:** Please report the recorded TGI for Cc1cc(NC(=O)NC(=O)c2ccccc2NC(=O)C(C)N)ccc1Oc1ncc(Br)cn1 (stereo not given) .
**A:** 52.2 µM

**Q:** Please report the recorded TGI for `C[C@H](OCc1ccccc1)C(=O)N1CCS(=O)(=O)N2CCC[C@@H]2C1=O` .
**A:** > 100 µM

* * *

Attribute: TGI
# System: TK-10 renal
# testSummary: NCI tumour cell line growth inhibition, 48 h
The answer is to be given in µM; state only the numeric part.

Example compounds with recorded TGI:
- O=C1C(Cl)=C(OCCCl)C(=O)c2c(O)ccc(O)c21: 7.76
- CC(=O)NCCC1CN(C(=O)/C=C/I)c2ccccc21 (configuration not stated): 3.63

**Q:** Please report the recorded TGI for CC(CN(C)C)/C(=N\Nc1ccccc1)c1ccccc1 (configuration not stated) .
**A:** 5.56

* * *

# Tested on: SF-268 CNS
# testSummary: NCI tumour cell line growth inhibition, 48 h
Attribute: TGI

• Cc1ccccc1C1OC(=O)c2ccc3ccccc3c21 (stereo not drawn) = 14.8 µM
• O=c1cnn(C2OC(CO)C(O)C2O)c(=S)[nH]1 (stereo not drawn) = > 100 µM
• O=C1Nc2ccc(Br)cc2C1=Nc1cccnc1 = 71.8 µM

**Q:** Please report the recorded TGI for O=C1CCCCCCCCCCC1CN1CCCC1 (stereo not drawn) .
**A:** > 100 µM

**Q:** Please report the recorded TGI for Cc1ccccc1OCC(O)CN1CCN(c2ccc(Cl)cc2)CC1 (stereo not drawn) .
**A:** 34.3 µM

**Q:** Please report the recorded TGI for `O=C1C(c2ccccc2)=C(O)c2cccc3cccc1c23` .
**A:** > 100 µM

**Q:** Please report the recorded TGI for `COc1cccc(CCN2CCN(CCCc3ccccc3)CC2)c1` .
**A:** > 100 µM

**Q:** Please report the recorded TGI for Cc1cc2c(cc1Cl)SC1=NN(C)C(C)N1S2(=O)=O (stereo not drawn) .
**A:** > 100 µM

* * *

# Test system: SR leukemia
# testSummary: NCI tumour cell line growth inhibition, 48 h; in the data active = GI50 below about 0.43 µM; inactive = the rest
Permitted responses: yes (1) (active), no (0) (inactive)

* O=C(N/N=C/C=C/c1ccc([N+](=O)[O-])o1)c1cc2ccccc2cc1O | yes (1)
* Cc1cc2c(C(C)C)c(O)c(O)cc2c(O)c1-c1c(C)cc2c(C(C)C)c(O)c(O)cc2c1O | no (0)
* C[C@@]12CCC(=O)c3coc(c31)C(=O)c1cc3c(cc12)C(=O)C=CC3=O | no (0)

**Q:** Assay result, entry `O=C(Nc1cccc(-n2cc(-c3ccncc3)c(-c3ccc(Cl)c(O)c3)n2)c1)Nc1cc(C(F)(F)F)cc(C(F)(F)F)c1` — outcome?
**A:** no (0)

**Q:** Assay result, entry `Cc1ccc(S(=O)(=O)c2c(COC(=O)c3cccc(C)c3)c(-c3ccccc3)nn2C)cc1` — outcome?
**A:** no (0)

**Q:** Assay result, entry `NCCCC[C@@H]1NC(=O)[C@H]2CCCN2C(=O)[C@H](Cc2ccccc2)CNC(=O)[C@H](Cc2ccccc2)NC1=O` — outcome?
**A:** no (0)

**Q:** Assay result, entry C=C1C(O)C2C(=C(CC)C13CC3)C(=O)C(C)(C)C2OC (stereo not given) — outcome?
**A:** no (0)

**Q:** Assay result, entry `Cn1ncnc1[C@H]1c2n[nH]c(=O)c3cc(F)cc(c23)N[C@@H]1c1ccc(F)cc1` — outcome?
**A:** yes (1)

**Q:** Assay result, entry CN(C)CCN1C(=O)c2c(c3c4ccccc4n4c3c3c2c2ccccc2n3C2CC(O)C(O)C4(C)O2)C1=O (stereo not given) — outcome?
**A:** yes (1)

**Q:** Assay result, entry `COc1cc(C(=O)c2c(-c3ccccc3)oc3c(OC)cccc23)cc(OC)c1OC` — outcome?
**A:** yes (1)

* * *

# System: HCC-2998 colon
# testSummary: NCI tumour cell line growth inhibition, 48 h; in the data active = GI50 below about 0.43 µM; inactive = the rest
Permitted responses: 1 = active, 0 = inactive

Previously resolved entries follow.
• NCCCC[C@@H]1NC(=O)[C@H]2CCCN2C(=O)[C@H](Cc2ccccc2)CNC(=O)[C@H](Cc2ccccc2)NC1=O = 0
• C#CC#CC#CC#CC#CC#CC#CC#CCC1OCC(COC(=O)O[C@@H](C(=O)O[C@H]2C[C@@]3(O)[C@@H](OC(=O)c4ccccc4)[C@@H]4[C@]5(OC(C)=O)CO[C@@H]5C[C@H](O)[C@@]4(C)C(=O)[C@H](OC(C)=O)C(=C2C)C3(C)C)[C@@H](NC(=O)c2ccccc2)c2ccccc2)O1 (some centres undefined) = 1
• COc1cc(C(=O)c2c(-c3ccccc3)oc3c(OC)cccc23)cc(OC)c1OC = 1

**Q:** Assay result, entry `N#C/C(=C\c1ccsc1)c1nc2ccccc2o1` — outcome?
**A:** 0

**Q:** Assay result, entry COC1CC(O[C@H]2CC[C@@]3(C)[C@H](CC[C@@H]4[C@@H]3CC[C@]3(C)[C@@H](C5=CC(=O)OC5)[C@@H](OC(C)=O)C[C@]43O)C2)OC(C)C1O (some centres undefined) — outcome?
**A:** 1

**Q:** Assay result, entry `O=C(Nc1ccc(Br)cc1F)c1cc(I)ccc1O` — outcome?
**A:** 0

**Q:** Assay result, entry `Cc1c(C(=O)Nc2ccccc2)sc2ncn(Cc3cccc(Cl)c3)c(=O)c12` — outcome?
**A:** 0

* * *

Attribute: TGI
# Test system: MDA-MB-435
# testSummary: NCI tumour cell line growth inhibition, 48 h
The answer is to be given in µM; state only the numeric part.

- O=C(C/C(=N/O)C(=O)NC1=C(Cl)C(=O)c2ccccc2C1=O)CC(c1ccccc1)c1c(O)c2ccccc2oc1=O (centres undefined): 4.72

**Q:** Please report the recorded TGI for `COc1ccc2c(CN3CCCC[C@H]3C(=O)O)cc3cc4c(cc3c2c1)OCO4` .
**A:** 4.09

**Q:** Please report the recorded TGI for O=C1OCC2=C1C(c1cccc(Cl)c1)c1cc3c(cc1N2CCO)OCCO3 (centres undefined) .
**A:** 0.0626

**Q:** Please report the recorded TGI for `CC1=C(c2cccc(O)c2)[C@H](c2ccc(OCCN3CC(CF)C3)cc2)Oc2ccc(O)cc21` .
**A:** 24.3

**Q:** Please report the recorded TGI for `COc1cccc(-c2c[nH]c3c(N/N=C/c4ccncc4)ncnc23)c1` .
**A:** 6.9

* * *

Attribute: TGI
# Test system: RPMI-8226 leukemia
# testSummary: NCI tumour cell line growth inhibition, 48 h
The answer is to be given in µM; state only the numeric part.

• CCCCCCCCCCCCCCCC(=O)OCC1OC(n2cc(F)c(=O)[nH]c2=O)C(N)C(O)C1O (stereo not given) = 51.3

// below: TGI requested for another compound
**Q:** Please report the recorded TGI for N#CC1(C#N)NC(c2cccs2)C(C#N)(C#N)NC1c1cccs1 (stereo not given) .
**A:** 73.1
